Measured values drawn from ChEMBL document CHEMBL1156597 for this set.

System: PANC-1
measurement.description: Cytotoxicity against human PANC1 cells after 48 hrs by SRB assay
Format: functional
applied.conditions: PANC-1, 48 h, read-out: LC50 (the source's name)
measured.parameter: CC50

{"smiles.data": "C/C=C1\\NC(=O)[C@H](Cc2ccccc2)NC(=O)[C@@H](C(C)C)NC(=O)[C@@H]([C@H](C)CC)NC(=O)[C@H](NC(=O)[C@H](NC(=O)[C@H](CCCN)NC(=O)[C@H]2CCCCN2C(=O)[C@H](NC(=O)[C@@H](NC(=O)[C@@H](NC(=O)[C@H](NC(=O)CC[C@@H](C)CC)C(C)C)[C@@H](C)O)C(C)C)C(C)C)[C@H](C)CC)[C@H](C)OC(=O)[C@H](C(C)C)NC1=O", "measured.parameter": "CC50", "readout.value": "2020 nM"}
{"smiles.data": "C/C=C1\\NC(=O)[C@@H]2C[C@@H]3CCCC[C@@H]3N2C(=O)[C@@H](C(C)C)NC(=O)[C@@H]([C@H](C)CC)NC(=O)[C@H](NC(=O)[C@H](NC(=O)[C@H](CCCN)NC(=O)[C@H]2CCCN2C(=O)[C@H](NC(=O)[C@@H](NC(=O)[C@@H](NC(=O)[C@H](NC(=O)CC[C@@H](C)CC)C(C)C)[C@@H](C)O)C(C)C)C(C)C)[C@H](C)CC)[C@H](C)OC(=O)[C@H](C(C)C)NC1=O", "measured.parameter": "CC50", "readout.value": "2000 nM"}
{"smiles.data": "C/C=C1\\NC(=O)[C@H](Cc2ccc3ccccc3c2)NC(=O)[C@@H](C(C)C)NC(=O)[C@@H]([C@H](C)CC)NC(=O)[C@H](NC(=O)[C@H](NC(=O)[C@H](CCCN)NC(=O)[C@H]2CCCN2C(=O)[C@H](NC(=O)[C@@H](NC(=O)[C@@H](NC(=O)[C@H](NC(=O)CCCC(C)C)C(C)C)[C@@H](C)O)C(C)C)C(C)C)[C@H](C)CC)[C@H](C)OC(=O)[C@H](C(C)C)NC1=O", "measured.parameter": "CC50", "readout.value": "1370 nM"}
